// data source = PubChem BioAssay (NCI)

tested on: NCI-H460 lung; assay: NCI-60 one-dose screen, 48 h (100 = growth as untreated, 0 = no growth, -100 = all killed); conditions: 10 µM unless noted
The panel holds about 83,000 compounds, 20% with a hit somewhere; the sample as a whole holds those more often.

>  <chemical_string>
CCCCCCCCCCCCCCCCSC(=NCC)NCC

>  <growth [%]>
-83.9

$$$$
>  <chemical_string>
O=[N+]([O-])c1ccc(C2N(Cc3ccc(Cl)cc3)CCN2Cc2ccc(Cl)cc2)cc1

>  <growth [%]>
101

$$$$
>  <chemical_string>
Clc1ccc(Cc2nc3ccccc3s2)cc1

>  <growth [%]>
105

$$$$
>  <chemical_string>
Nc1ccc(Oc2ccccc2)c(Cl)c1

>  <growth [%]>
106

$$$$
>  <chemical_string>
COc1cc2c(c(OC)c1OC)-c1ccc(NCc3ccccc3)c(=O)cc1[C@@H](NC(C)=O)CC2

>  <growth [%]>
4.14

$$$$
>  <chemical_string>
CCN1/C(=C/C(C)=C/c2sc3ccc4ccccc4c3[n+]2CC)Sc2ccc3ccccc3c21

>  <growth [%]>
-90.5

$$$$
>  <chemical_string>
CC(C)=C1C=C2CC[C@@H]3[C@](C)(CCC[C@@]3(C)C(=O)O)[C@H]2CC1

>  <growth [%]>
106

$$$$
>  <chemical_string>
CCOC(=O)C1=C(C(=O)c2ccccc2)C(c2cccc([N+](=O)[O-])c2)C(C(=O)c2ccccc2)=C(C(=O)OCC)N1

>  <growth [%]>
98.8

$$$$
>  <chemical_string>
O=C1C=CC(=O)N1C1CCCCCCCCCCC1

>  <growth [%]>
106

$$$$
>  <chemical_string>
O=[N+]([O-])c1cc(-c2ccccc2)c(O)c([N+](=O)[O-])c1

>  <growth [%]>
65.9

$$$$
>  <chemical_string>
CCCN(CCC)C(=O)c1ccc(C)cc1

>  <growth [%]>
99.8

$$$$

====

test system: IGROV1 ovarian; experiment: NCI-60 one-dose screen, 48 h; details: 10 µM unless noted
This is part of a sample that, as a whole, favours compounds with a hit. Of some 83,000 tested, about 20% had one in any assay. The source made the active and inactive calls. How the source made its calls: active means growth percent below 10; inactive means the rest. *1 amine or outer side, *2 acyl side, *3 side chain or, on linkers, in order; H or OH if unused. Where a SMILES comes first, the peptide text is derived from it. Bridges are numbered along the chain shown (N, C = ends). Roman numbers before positions name the chains, in order. [ ]: non-standard residue; d: D form. ξ: configuration not given here. Actinocin(1to9) = Cc1c2oc3c(C)ccc(C(=O)[*:2])c3nc-2c(C(=O)[*:1])c(N)c1=O; NMeV = CN[CH](C(=O)O)C(C)C; ξD = NC(CC(=O)O)C(=O)O; Sar = CNCC(=O)O
Possible outcomes: active, inactive

>  <compound>
Oc1ccc(Cl)cc1C(c1cc(Cl)ccc1O)C(Cl)(Cl)Cl

>  <class_label>
inactive

$$$$
>  <compound>
COc1ccc2c(c1OC)OCC(CN(C)C)C2=O (stereo not drawn)

>  <class_label>
inactive

$$$$
>  <compound>
O=C1C(=O)c2cccnc2-c2ncccc21

>  <class_label>
active

$$$$
>  <compound>
N#C/C(=N\Nc1ccc(Cl)cc1)C(=O)C1CC1

>  <class_label>
inactive

$$$$
>  <compound>
CN1CSC(=S)N(Cc2ccccc2)C1

>  <class_label>
inactive

$$$$
>  <compound>
CCOC(=O)C1=C(C(=O)c2ccccc2)C(c2cccc([N+](=O)[O-])c2)C(C(=O)c2ccccc2)=C(C(=O)OCC)N1

>  <class_label>
inactive

$$$$
>  <compound>
[Cl-].[Rh+3].c1ccc(-c2ccnc3c2ccc2c(-c4ccccc4)ccnc23)cc1.c1ccc(-c2ccnc3c2ccc2c(-c4ccccc4)ccnc23)cc1.c1ccc(-c2ccnc3c2ccc2c(-c4ccccc4)ccnc23)cc1

>  <class_label>
inactive

$$$$
>  <compound>
Cn1ccc(=Nc2ccc(NC(=O)c3ccc(N=c4ccn(C)c5ccc([N+](=O)[O-])cc45)cc3)cc2)cc1

>  <class_label>
inactive

$$$$
>  <compound>
Cc1cc(C)c(C#N)c(Sc2nc(C)c([N+](=O)[O-])c(C)c2C#N)n1

>  <class_label>
inactive

$$$$
>  <compound>
CCC(=O)c1cc([N+](=O)[O-])c(Br)s1

>  <class_label>
inactive

$$$$
>  <compound>
CCOC(=O)c1[nH]c(C#N)c(C(=O)OCC)c1C

>  <class_label>
inactive

$$$$
>  <compound>
CCCCCCCCCCCCCCCCCC[S+](C)CC (stereo not drawn)

>  <class_label>
active

$$$$
>  <compound>
N=C1C=C(N)C(=O)c2ccccc21

>  <class_label>
active

$$$$
>  <compound>
NCCCN(CCCN)CCCNCc1c2ccccc2c(CNCCCN(CCCN)CCCN)c2ccccc12

>  <class_label>
inactive

$$$$
>  <compound>
N#CC(I)CS(=O)(=O)c1ccccc1 (stereo not drawn)

>  <class_label>
inactive

$$$$
>  <compound>
CCCOC(=O)c1nc(N(CC2CCCCC2)C(=O)NC)sc1/N=C/c1ccccc1

>  <class_label>
inactive

$$$$
>  <compound>
CCCCCCCCCCCCNCCCc1ccccc1

>  <class_label>
inactive

$$$$
>  <compound>
CN(C)c1ccc(C(=C2C=CC(=[N+](C)C)C=C2)c2ccc(N(C)C)cc2)cc1

>  <class_label>
active

$$$$
>  <compound>
CC(C)c1ccc(C(=O)OC2CCCC2)cc1

>  <class_label>
inactive

$$$$
>  <compound>
NCC(=O)NC(CC(=O)O)C(=O)O (stereo not drawn) (H-Gly-[ξD]-OH)

>  <class_label>
inactive

$$$$
>  <compound>
CC(=O)C1Cc2ccccc2C1=O (stereo not drawn)

>  <class_label>
inactive

$$$$
>  <compound>
CCCCC(C=O)(C=C=C(C)C)CC (stereo not drawn)

>  <class_label>
inactive

$$$$
>  <compound>
O=C(c1ccccc1)c1ccc(O)c2ncccc12

>  <class_label>
inactive

$$$$
>  <compound>
S=c1[nH]c2cc(Cl)ccc2s1

>  <class_label>
inactive

$$$$
>  <compound>
OC(c1cc2ccc(C(F)(F)F)cc2c2cc(C(F)(F)F)ccc12)C1CCCCN1 (stereo not drawn)

>  <class_label>
active

$$$$
>  <compound>
O=[N+]([O-])CC(O)c1ccccc1 (stereo not drawn)

>  <class_label>
inactive

$$$$
>  <compound>
O=C1/C(=C\c2ccc([N+](=O)[O-])cc2)CS(=O)(=O)C/C1=C/c1ccc([N+](=O)[O-])cc1

>  <class_label>
active

$$$$
>  <compound>
C(=N\Nc1ccc2ccccc2n1)/c1ccccn1

>  <class_label>
active

$$$$
>  <compound>
Cc1cc(I)nc2ccccc12

>  <class_label>
inactive

$$$$
>  <compound>
O=[N+]([O-])/C(=C/c1ccccc1)c1ccccc1

>  <class_label>
inactive

$$$$
>  <compound>
CCCCCCCCCCCC1=NCCCN1CCCC

>  <class_label>
inactive

$$$$
>  <compound>
COc1cc(OC)c(/C=C/c2c3ccccc3cc[n+]2C)c(OC)c1

>  <class_label>
inactive

$$$$
>  <compound>
CCOC(=O)C1=NN(c2ccccc2)C(=O)/C1=C\N1C(=O)/C(=C/c2cccc(O)c2)SC1=S

>  <class_label>
inactive

$$$$
>  <compound>
CC1=CC(=NC(=O)CBr)C=C/C1=N\S(=O)(=O)c1ccccc1

>  <class_label>
active

$$$$
>  <compound>
CCC(C)C1NC(=O)C(NC(=O)c2c3nc4c(C(=O)NC5C(=O)NC(C(C)CC)C(=O)N6CCCC6C(=O)N(C)CC(=O)N(C)C(C(C)C)C(=O)OC5C)ccc(C)c4oc-3c(C)c(=O)c2N)C(C)OC(=O)C(C(C)C)N(C)C(=O)CN(C)C(=O)C2CCCN2C1=O (stereo not drawn) (I: TIP[Sar][NMeV] / II: TIP[Sar][NMeV]; ester I:1-I:C, II:1-II:C; linker I:N-II:N via Actinocin(1to9); configuration not given here)

>  <class_label>
active

$$$$
>  <compound>
Cc1cc(Br)c2nsnc2c1[N+](=O)[O-]

>  <class_label>
inactive

$$$$
>  <compound>
O=C(C[P+](c1ccccc1)(c1ccccc1)c1ccccc1)c1ccccc1

>  <class_label>
inactive

$$$$
>  <compound>
O=C1C=C(Cl)C(=O)c2ccccc21

>  <class_label>
inactive

$$$$
>  <compound>
O=C(CBr)c1ccc(OC(=O)c2ccccc2)cc1

>  <class_label>
inactive

$$$$
>  <compound>
O=C1c2ccccc2C(=O)c2c(O)c(Cl)cc(O)c21

>  <class_label>
inactive

$$$$
>  <compound>
OC(CSc1ccccc1)CN1CCN(c2ccc(Cl)cc2)CC1 (stereo not drawn)

>  <class_label>
inactive

$$$$
>  <compound>
O=[N+]([O-])c1ccc2c(c1)Cc1ccccc1-2

>  <class_label>
inactive

$$$$
>  <compound>
CCCCCCCCCCCCCCCCCC1=NCCCN1CCO

>  <class_label>
inactive

$$$$
